- TARGET_OR_TEST_SYSTEM: human thyroid stimulating hormone (hTSH) (Homo sapiens, UniProt P01215;P01222 P01215:25-116,P01222:21-132)
- Sequence (P01215 25-116, chain 1 of 2): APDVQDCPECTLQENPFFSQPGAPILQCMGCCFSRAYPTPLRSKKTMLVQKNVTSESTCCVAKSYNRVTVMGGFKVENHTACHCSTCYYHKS
- Sequence (P01222 21-132, chain 2 of 2): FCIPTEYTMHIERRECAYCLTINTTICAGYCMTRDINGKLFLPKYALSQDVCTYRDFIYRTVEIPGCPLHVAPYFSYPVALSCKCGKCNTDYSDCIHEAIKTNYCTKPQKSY
- ASSAY_NOTES: filter; Mg, pH 6.5
- REPORTED_CONDITIONS: tags: Becton Dickinson; chain copies: alpha/beta heterodimer (inferred); label: 32P; G4 (RNase T1 protection in K+)
pKd: −log10 of the molar value.
READOUT_KIND: pKd

Suppose we examine the binder H-30 (ssRNA, 2'-NH2 all pyrimidines) RNA: GGGAGGACGAUGCGGUACUGUAAAACAAUCUGGAGGAGGGUCUAGGGGAUGGUGGCAGACGACUCGCCCGA ; what pKd value has been reported? ~5.80
